For each of the compounds below, state its MIC E. coli Δ.
- System: E. coli BAS901 (permeabilized)
- Type: cell-based
- Reported Conditions: CLSI broth microdilution, Muller-Hinton broth, 5×10^5 CFU/mL, 24 hr at 37 C, OD600, performed in triplicate

Sample CCCCCCCCCCCCOC(=O)N[C@@H](CCN)C(=O)N(C)[C@H]1CC#CC#CC[C@H](C(N)=O)NC(=O)[C@H](C)NC1=O — what was its MIC E. coli Δ?
> 64 µg/mL

Sample CCCCCCCCCCCCOC(=O)N[C@@H](CCN)C(=O)N(C)[C@H]1COCC#CC#CC[C@@H](C(N)=O)NC(=O)[C@H](C)NC1=O — what was its MIC E. coli Δ?
> 64 µg/mL

Sample CCCCCCCCCCCCOC(=O)N[C@@H](CCN)C(=O)N(C)[C@H]1COCC#CC#CC[C@H](C(N)=O)NC(=O)[C@H](C)NC1=O — what was its MIC E. coli Δ?
> 64 µg/mL
